- Procedure summary: Toxicity in ICR mouse at 1 to 2 mg/ml, iv after 8 days
- Condition label: in vivo
Result type: MTD at 192 h (µmol/kg)
State the answer as a number, implicitly in µmol/kg.

CCCCCCCCCCCN(C)C.N#CB(Br)Br ... 73.1

Recorded MTD at 192 h (molecule C[C@@H]1[C@H](O)[C@@H](C)/C=C/C=C/C=C/C=C/C=C/C=C/C=C/[C@H](O[C@@H]2O[C@H](C)[C@@H](O)[C@H](N)[C@@H]2O)C[C@@H]2O[C@](O)(C[C@@H](O)C[C@@H](O)[C@H](O)CC[C@@H](O)C[C@@H](O)CC(=O)O[C@H]1C)C[C@H](O)[C@H]2C(=O)O ): 2.6

###

- Test system: Candida albicans
- Procedure summary: microbe, parasite or virus in culture
- Type: functional
- Condition label: CBS 562
- Description: Antifungal activity against Candida albicans CBS 562
# log10(MIC) per record follows
Values reflect log10 of reported MIC (µM).

Here is how some molecules turned out for log10(MIC).
OC(Cn1cncn1)(Cn1cncn1)c1ccc(F)cc1F ... 0.20
CN(C)C.N#CB(Br)Br ... 3.29
CCCCCCCCCCCN(C)C.N#CB(Br)Br ... 1.59
BC#N.CCCCCCCCCCCCN(C)C ... 1.79
CN(C)CCCCCCCCCCN(C)C.N#CB(Br)Br.N#CB(Br)Br ... 2.02

Recorded log10(MIC) (molecule BC(=O)O.BC(=O)O.CN(C)CCCCCCCCCCN(C)C ): 2.27

Recorded log10(MIC) (molecule C[C@@H]1[C@H](O)[C@@H](C)/C=C/C=C/C=C/C=C/C=C/C=C/C=C/[C@H](O[C@@H]2O[C@H](C)[C@@H](O)[C@H](N)[C@@H]2O)C[C@@H]2O[C@](O)(C[C@@H](O)C[C@@H](O)[C@H](O)CC[C@@H](O)C[C@@H](O)CC(=O)O[C@H]1C)C[C@H](O)[C@H]2C(=O)O ): -0.27

###

- Tested on: Candida albicans
- Procedure summary: microbe, parasite or virus in culture
- Assay type: functional
- Description: Antifungal activity against Candida albicans 607
Result type: MIC (µM)
State the answer as a number, implicitly in µM.

OC(Cn1cncn1)(Cn1cncn1)c1ccc(F)cc1F ... 1.6
C[C@@H]1[C@H](O)[C@@H](C)/C=C/C=C/C=C/C=C/C=C/C=C/C=C/[C@H](O[C@@H]2O[C@H](C)[C@@H](O)[C@H](N)[C@@H]2O)C[C@@H]2O[C@](O)(C[C@@H](O)C[C@@H](O)[C@H](O)CC[C@@H](O)C[C@@H](O)CC(=O)O[C@H]1C)C[C@H](O)[C@H]2C(=O)O ... 0.27
CCCCCCCCCCCN(C)C.N#CBF ... 64

API: the following record is the query input.
Recorded MIC (molecule CN(C)CCCCCCCCCCN(C)C.N#CB(Br)Br.N#CB(Br)Br ): 104

###

- Test system: Candida albicans
- Procedure summary: microbe, parasite or virus in culture
- Assay type: functional
Friendly reminder: MIC below 100 µM is Condition met, at or above is Condition not met.

Previously resolved entries follow.
BC#N.CCCCCCCCCCCCN(C)C [DODECYLDIMETHYLAMINE CYANOBORANE] ... Condition met
CN(C)CCCCCCCCCCN(C)C.N#CBBr.N#CBBr ... Condition not met

Enquiry: Is the reported MIC for CN(C)C.N#CB(Br)Br strictly below 100 µM?
Return: Condition not met

Enquiry: Is the reported MIC for CCCCCCCCCCCN(C)C.N#CB(Br)Br strictly below 100 µM?
Return: Condition met

Enquiry: Is the reported MIC for CCCCCCCCCCCN(C)C.N#CBBr strictly below 100 µM?
Return: Condition met

Enquiry: Is the reported MIC for BC(=O)O.BC(=O)O.CN(C)CCCCCCCCCCN(C)C strictly below 100 µM?
Return: Condition not met

Enquiry: Is the reported MIC for BC#N.CN(C)C strictly below 100 µM?
Return: Condition not met

###

- Test system: Candida albicans
- Procedure summary: microbe, parasite or virus in culture
- Format: functional
- Condition label: CBS 562
Result type: MIC (µM)
State the answer as a number, implicitly in µM.

CCCCCCCCCCCN(C)C.N#CBBr ... 49
CCCCCCCCCCCN(C)C.N#CBF ... 64
CN(C)CCCCCCCCCCN(C)C.N#CBBr.N#CBBr ... 140

Recorded MIC (compound BC#N.CN(C)C ): 5100
